Each entry below carries its reported IC50.
Target: Prostaglandin G/H synthase 1 (Bos taurus, UniProt O62664)
Sequence (O62664 whole entry): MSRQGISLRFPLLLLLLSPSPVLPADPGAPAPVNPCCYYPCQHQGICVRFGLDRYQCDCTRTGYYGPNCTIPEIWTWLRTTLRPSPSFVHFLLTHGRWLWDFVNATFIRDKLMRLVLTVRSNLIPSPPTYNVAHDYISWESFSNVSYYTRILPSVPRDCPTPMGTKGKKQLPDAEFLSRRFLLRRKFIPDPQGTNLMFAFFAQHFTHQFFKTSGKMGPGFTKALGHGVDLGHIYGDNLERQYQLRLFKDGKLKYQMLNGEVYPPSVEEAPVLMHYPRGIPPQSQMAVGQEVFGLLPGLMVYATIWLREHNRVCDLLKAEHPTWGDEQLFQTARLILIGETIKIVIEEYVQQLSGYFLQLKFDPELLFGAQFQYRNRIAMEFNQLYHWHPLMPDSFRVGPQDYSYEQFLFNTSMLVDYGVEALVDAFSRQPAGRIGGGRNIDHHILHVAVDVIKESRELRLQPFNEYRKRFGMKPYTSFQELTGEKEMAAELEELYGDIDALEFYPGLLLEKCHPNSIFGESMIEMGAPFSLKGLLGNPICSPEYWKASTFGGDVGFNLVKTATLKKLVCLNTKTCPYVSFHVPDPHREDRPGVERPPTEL
// units = µM; emit number, no label

As a guide, the following entries are already answered.
STRUCTURE NOTATION: CC/C=C\C/C=C\C/C=C\C/C=C\CCSCCCC(=O)O
IC50 (µM): 26
--
STRUCTURE NOTATION: CC/C=C\C/C=C\C/C=C\C/C=C\C/C=C\C/C=C\CCC(=O)O
IC50 (µM): 15
--
STRUCTURE NOTATION: CC/C=C\C/C=C\C/C=C\C/C=C\CC/C=C/COCC(=O)O
IC50 (µM): 50

*Q* So what's the measured IC50 for this one? "CC/C=C\C/C=C\C/C=C\C/C=C\CCSCC(=O)O"
*A* 84

*Q* So what's the measured IC50 for this one? "CC/C=C\C/C=C\C/C=C\CCCCCCCC(=O)O"
*A* 93

====

assay: Selectivity ratio for IC50 for sheep COX2 to IC50 for […]
Decide by Ratio IC50: equal to or exceeding 0.6 means YES, less means NO.

Reference set, count: 6
MOLECULE: CC/C=C\C/C=C\C/C=C\CCCCCCCC(=O)O [LINOLENIC ACID]
LABEL VALUE: NO

MOLECULE: CC/C=C\C/C=C\C/C=C\C/C=C\CC/C=C/COCC(=O)O
LABEL VALUE: YES

MOLECULE: CC/C=C\C/C=C\C/C=C\C/C=C\CCSCC(=O)O
LABEL VALUE: YES

MOLECULE: CC/C=C\C/C=C\C/C=C\CC/C=C/CSCCCC(=O)O
LABEL VALUE: YES

MOLECULE: CC/C=C\C/C=C\C/C=C\C/C=C\C/C=C\CCCC(=O)O [ICOSAPENT]
LABEL VALUE: NO

MOLECULE: CC/C=C\C/C=C\C/C=C\C/C=C\C/C=C\C/C=C\CCC(=O)O [DOCONEXENT]
LABEL VALUE: YES

*Q* Hi, just wondering whether "CC/C=C\C/C=C\C/C=C\C/C=C\CCSCCCC(=O)O" shows Ratio IC50 of 0.6 or higher.
*A* NO
